# remaining at 24 h, 50 µM listing for each entry below
# PROCEDURE SUMMARY: Soluble peptide degradation, Cells condition (LC-MS)
# Format: in vitro ADME, human
# CONDITIONS: human, hUVECs in culture with fresh media (Cells condition); Figure 3C; individually synthesized soluble peptide, 50 µM, media on hUVECs; 24 h; LC-MS, ratio to βFβA6; N = 6; read-out: Fraction of peptide remaining after 24 hours: hUVEC Cells
Where a SMILES comes first, the peptide text is derived from it. [ ]: non-standard residue; d: D form. βAla = NCCC(=O)O
Kindly answer with a numeric value in %, unit omitted.

Qu. I am curious: what remaining at 24 h, 50 µM value has been reported for CC(=O)NCCC(=O)N[C@@H](CCCCN)C(=O)N[C@@H](CC(C)C)C(=O)N[C@H](C(=O)N[C@@H](C)C(=O)N[C@@H](CC(=O)O)C(=O)N1CCC[C@H]1C(=O)N[C@@H](Cc1ccc(O)cc1)C(=O)N[C@@H](C)C(=O)N[C@@H](CO)C(=O)N[C@@H](C)C(=O)N[C@@H](CCC(=O)O)C(=O)NCCC(N)=O)C(C)C [KLVAD-PY] (Ac-[βAla]KLVADPYASAE[βAla]-NH2) ?
Ans. 88

Qu. I am curious: what remaining at 24 h, 50 µM value has been reported for CC(=O)NCCC(=O)N[C@@H](CCCCN)C(=O)N[C@@H](CC(C)C)C(=O)N[C@H](C(=O)N[C@@H](C)C(=O)N[C@@H](CC(=O)O)C(=O)N[C@@H](CC(N)=O)C(=O)N[C@@H](Cc1ccc(O)cc1)C(=O)N[C@@H](C)C(=O)N[C@@H](CO)C(=O)N[C@@H](C)C(=O)N[C@@H](CCC(=O)O)C(=O)NCCC(N)=O)C(C)C [KLVAD-NY] (Ac-[βAla]KLVADNYASAE[βAla]-NH2) ?
Ans. 96

Qu. I am curious: what remaining at 24 h, 50 µM value has been reported for CC(=O)NCCC(=O)N[C@@H](CCCCN)C(=O)N[C@@H](CC(C)C)C(=O)N[C@H](C(=O)N[C@@H](C)C(=O)N[C@@H](CC(=O)O)C(=O)N[C@@H](Cc1ccc(O)cc1)C(=O)N[C@@H](Cc1c[nH]c2ccccc12)C(=O)N[C@@H](C)C(=O)N[C@@H](CO)C(=O)N[C@@H](C)C(=O)N[C@@H](CCC(=O)O)C(=O)NCCC(N)=O)C(C)C [KLVAD-YW] (Ac-[βAla]KLVADYWASAE[βAla]-NH2) ?
Ans. 72
